Tested on: COR-L 105
Experiment: relative viability (nuclei count vs DMSO), 5 days (fraction); higher = more cells survive
Conditions: first compound 0.02 µM
assay.endpoint: relative viability
API doc: respond with a numeric literal and nothing else, no unit.

Below, 5 molecules whose answers are already recorded.
- molecule: "CC(=O)O[C@@]12CO[C@@H]1C[C@H](O)[C@@]1(C)C(=O)[C@H](O)C3=C(C)[C@@H](OC(=O)[C@H](O)[C@@H](NC(=O)OC(C)(C)C)c4ccccc4)C[C@@](O)([C@@H](OC(=O)c4ccccc4)[C@H]21)C3(C)C [Docetaxel] + N=C(N)NC(=N)NCCc1ccccc1 [Phenformin] (partner 250 µM)"
  assay.endpoint: "relative viability"
  measured: 0.247
- molecule: "CC(=O)O[C@@]12CO[C@@H]1C[C@H](O)[C@@]1(C)C(=O)[C@H](O)C3=C(C)[C@@H](OC(=O)[C@H](O)[C@@H](NC(=O)OC(C)(C)C)c4ccccc4)C[C@@](O)([C@@H](OC(=O)c4ccccc4)[C@H]21)C3(C)C [Docetaxel] + CC(C)C[C@H](NC(=O)[C@H](Cc1ccccc1)NC(=O)c1cnccn1)B(O)O [Bortezomib] (partner 0.002 µM)"
  assay.endpoint: "relative viability"
  measured: 0.229
- molecule: "CC(=O)O[C@@]12CO[C@@H]1C[C@H](O)[C@@]1(C)C(=O)[C@H](O)C3=C(C)[C@@H](OC(=O)[C@H](O)[C@@H](NC(=O)OC(C)(C)C)c4ccccc4)C[C@@](O)([C@@H](OC(=O)c4ccccc4)[C@H]21)C3(C)C [Docetaxel] + Nc1nc2[nH]cc(CCc3ccc(C(=O)N[C@@H](CCC(=O)O)C(=O)O)cc3)c2c(=O)[nH]1 [Pemetrexed] (partner 0.2 µM)"
  assay.endpoint: "relative viability"
  measured: 0.388
- molecule: "CC(=O)O[C@@]12CO[C@@H]1C[C@H](O)[C@@]1(C)C(=O)[C@H](O)C3=C(C)[C@@H](OC(=O)[C@H](O)[C@@H](NC(=O)OC(C)(C)C)c4ccccc4)C[C@@](O)([C@@H](OC(=O)c4ccccc4)[C@H]21)C3(C)C [Docetaxel] + CC(=O)Nc1cccc(-n2c(=O)n(C3CC3)c(=O)c3c(Nc4ccc(I)cc4F)n(C)c(=O)c(C)c32)c1 [Trametinib] (partner 0.02 µM)"
  assay.endpoint: "relative viability"
  measured: 0.392
- molecule: "CC(=O)O[C@@]12CO[C@@H]1C[C@H](O)[C@@]1(C)C(=O)[C@H](O)C3=C(C)[C@@H](OC(=O)[C@H](O)[C@@H](NC(=O)OC(C)(C)C)c4ccccc4)C[C@@](O)([C@@H](OC(=O)c4ccccc4)[C@H]21)C3(C)C [Docetaxel] + CS(=O)(=O)N1CCN(Cc2cc3nc(-c4cccc5[nH]ncc45)nc(N4CCOCC4)c3s2)CC1 [Pictilisib] (partner 1 µM)"
  assay.endpoint: "relative viability"
  measured: 0.294

For COR-L 105, provide relative viability of CC(=O)O[C@@]12CO[C@@H]1C[C@H](O)[C@@]1(C)C(=O)[C@H](O)C3=C(C)[C@@H](OC(=O)[C@H](O)[C@@H](NC(=O)OC(C)(C)C)c4ccccc4)C[C@@](O)([C@@H](OC(=O)c4ccccc4)[C@H]21)C3(C)C [Docetaxel] + Cc1nc(Nc2ncc(C(=O)Nc3c(C)cccc3Cl)s2)cc(N2CCN(CCO)CC2)n1 [Dasatinib] (partner 0.075 µM) please. 0.202

For COR-L 105, provide relative viability of CC(=O)O[C@@]12CO[C@@H]1C[C@H](O)[C@@]1(C)C(=O)[C@H](O)C3=C(C)[C@@H](OC(=O)[C@H](O)[C@@H](NC(=O)OC(C)(C)C)c4ccccc4)C[C@@](O)([C@@H](OC(=O)c4ccccc4)[C@H]21)C3(C)C [Docetaxel] + C[C@@H](Oc1cc(-c2cnn(C3CCNCC3)c2)cnc1N)c1c(Cl)ccc(F)c1Cl [Crizotinib] (partner 1 µM) please. 0.248

* * *

System: NCI-H1299
Assay: relative viability (nuclei count vs DMSO), 5 days (fraction); higher = more cells survive
Details: first compound 0.4 µM
# key: entry, value: relative viability
API doc: respond with a numeric literal and nothing else, no unit.

Below, 3 compounds whose answers are already recorded.
- compound: "Cc1sc2c(c1C)C(c1ccc(Cl)cc1)=N[C@@H](CC(=O)OC(C)(C)C)c1nnc(C)n1-2 [JQ1] + CS(=O)(=O)CCNCc1ccc(-c2ccc3ncnc(Nc4ccc(OCc5cccc(F)c5)c(Cl)c4)c3c2)o1 [Lapatinib] (partner 2 µM)"
  assay.endpoint: "relative viability"
  measured: 0.837
- compound: "Cc1sc2c(c1C)C(c1ccc(Cl)cc1)=N[C@@H](CC(=O)OC(C)(C)C)c1nnc(C)n1-2 [JQ1] + CS(=O)(=O)N1CCN(Cc2cc3nc(-c4cccc5[nH]ncc45)nc(N4CCOCC4)c3s2)CC1 [Pictilisib] (partner 1 µM)"
  assay.endpoint: "relative viability"
  measured: 0.219
- compound: "Cc1sc2c(c1C)C(c1ccc(Cl)cc1)=N[C@@H](CC(=O)OC(C)(C)C)c1nnc(C)n1-2 [JQ1] + COc1cc2c(Oc3ccc(NC(=O)C4(C(=O)Nc5ccc(F)cc5)CC4)cc3F)ccnc2cc1OCCCN1CCOCC1 [Foretinib] (partner 0.25 µM)"
  assay.endpoint: "relative viability"
  measured: 0.819

For NCI-H1299, provide relative viability of Cc1sc2c(c1C)C(c1ccc(Cl)cc1)=N[C@@H](CC(=O)OC(C)(C)C)c1nnc(C)n1-2 [JQ1] + C[C@]1(O)C[C@@H](c2nc(-c3ccc4ccc(-c5ccccc5)nc4c3)c3c(N)nccn32)C1 [Linsitinib] (partner 1 µM) please. 0.883

* * *

Tested on: SK-LU-1
Test: relative viability (nuclei count vs DMSO), 5 days (fraction); higher = more cells survive
Details: first compound 0.5 µM
assay.endpoint: relative viability
API doc: respond with a numeric literal and nothing else, no unit.

- compound: "COc1cc2nccc(Oc3ccc(NC(=O)Nc4cc(C)on4)c(Cl)c3)c2cc1OC [Tivozanib] + C[C@]1(O)C[C@@H](c2nc(-c3ccc4ccc(-c5ccccc5)nc4c3)c3c(N)nccn32)C1 [Linsitinib] (partner 1 µM)"
  study.target: "SK-LU-1"
  relative viability: 0.938
- compound: "COc1cc2nccc(Oc3ccc(NC(=O)Nc4cc(C)on4)c(Cl)c3)c2cc1OC [Tivozanib] + N=C(N)NC(=N)NCCc1ccccc1 [Phenformin] (partner 250 µM)"
  study.target: "SK-LU-1"
  relative viability: 0.532
- compound: "COc1cc2nccc(Oc3ccc(NC(=O)Nc4cc(C)on4)c(Cl)c3)c2cc1OC [Tivozanib] + Cc1cc(Nc2cc(N3CCN(C)CC3)nc(Sc3ccc(NC(=O)C4CC4)cc3)n2)n[nH]1 [Tozasertib] (partner 0.1 µM)"
  study.target: "SK-LU-1"
  relative viability: 0.335
- compound: "COc1cc2nccc(Oc3ccc(NC(=O)Nc4cc(C)on4)c(Cl)c3)c2cc1OC [Tivozanib] + CC(=O)Nc1cccc(-n2c(=O)n(C3CC3)c(=O)c3c(Nc4ccc(I)cc4F)n(C)c(=O)c(C)c32)c1 [Trametinib] (partner 0.02 µM)"
  study.target: "SK-LU-1"
  relative viability: 0.503

Value lookup for relative viability; key = COc1cc2nccc(Oc3ccc(NC(=O)Nc4cc(C)on4)c(Cl)c3)c2cc1OC [Tivozanib] + COc1cc2c(Oc3ccc(NC(=O)C4(C(=O)Nc5ccc(F)cc5)CC4)cc3F)ccnc2cc1OCCCN1CCOCC1 [Foretinib] (partner 0.25 µM) 0.829

Value lookup for relative viability; key = Nc1ccn([C@@H]2O[C@H](CO)[C@@H](O)[C@@H]2O)c(=O)n1 [Cytarabine] + CCNC(=O)c1noc(-c2cc(C(C)C)c(O)cc2O)c1-c1ccc(CN2CCOCC2)cc1 [Luminespib] (partner 0.01 µM) 0.185

* * *

Tested on: PC-3 [JPC-3]
Assay: relative viability (nuclei count vs DMSO), 5 days (fraction); higher = more cells survive
Conditions: first compound 2.53 µM
assay.endpoint: relative viability

Below, 3 molecules whose answers are already recorded.
- molecule: "Cc1cnc(-c2cnc(NCCNc3ccc(C#N)cn3)nc2-c2ccc(Cl)cc2Cl)[nH]1 + Nc1nc2[nH]cc(CCc3ccc(C(=O)N[C@@H](CCC(=O)O)C(=O)O)cc3)c2c(=O)[nH]1 [Pemetrexed] (partner 0.2 µM)"
  assay.endpoint: "relative viability"
  measured: 0.969
- molecule: "Cc1cnc(-c2cnc(NCCNc3ccc(C#N)cn3)nc2-c2ccc(Cl)cc2Cl)[nH]1 + COc1cc2c(Oc3ccc(NC(=O)C4(C(=O)Nc5ccc(F)cc5)CC4)cc3F)ccnc2cc1OCCCN1CCOCC1 [Foretinib] (partner 0.25 µM)"
  assay.endpoint: "relative viability"
  measured: 1.03
- molecule: "Cc1cnc(-c2cnc(NCCNc3ccc(C#N)cn3)nc2-c2ccc(Cl)cc2Cl)[nH]1 + NC(=O)Nc1cc(-c2cccc(F)c2)sc1C(=O)N[C@H]1CCCNC1 [AZD7762] (partner 0.2 µM)"
  assay.endpoint: "relative viability"
  measured: 0.725

Turning to the following molecule.
Value lookup for relative viability; key = O=c1[nH]c2ccccc2n1C1CCN(CCCC(c2ccc(F)cc2)c2ccc(F)cc2)CC1 [Pimozide] + CS(=O)(=O)N1CCN(Cc2cc3nc(-c4cccc5[nH]ncc45)nc(N4CCOCC4)c3s2)CC1 [Pictilisib] (partner 1 µM) 0.698
